- system under test: HCV NS3-NS4A protease (Hepatitis C virus genotype 1a)
- Sequence (P27958 1027-1208, other chains not shown): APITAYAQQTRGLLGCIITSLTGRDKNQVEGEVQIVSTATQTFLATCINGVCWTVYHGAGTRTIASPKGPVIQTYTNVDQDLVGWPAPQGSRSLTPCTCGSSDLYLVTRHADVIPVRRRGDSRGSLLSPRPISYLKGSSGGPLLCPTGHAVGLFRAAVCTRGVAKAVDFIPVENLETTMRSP
- protocol description: Ki determination, HPLC microbore assay with 5AB peptide substrate, tNS3 and KK4A cofactor
- Assay type: biochemical
- condition set: 25 nM tNS3, 25 μM KK4A, 20 μM 5AB substrate, 30° C., pH 7.8; read-out: Ki
Exercise: state measured pKi for each of the molecules provided.
Answers are plain numbers, as −log10 of the molar value.

| molecule | pKi |
| --- | --- |
| CCCC(NC(=O)[C@@H]1[C@H]2CC[C@H](C2)N1C(=O)[C@@H](NC(=O)[C@@H](NC(=O)[C@H](C)NS(C)(=O)=O)C1CCCCC1)C(C)(C)C)C(=O)C(=O)N[C@@H](C)c1ccccc1 (stereo partly drawn) | 7.30 |

Count: 2. Required value per item: pKi.
1. CCC[C@H](NC(=O)[C@@H]1[C@H]2CC[C@H](C2)N1C(=O)[C@@H](NC(=O)[C@@H](NC(=O)c1cnccn1)C1CCCCC1)C(C)C)C(=O)C(=O)NC1CC1
2. CCC[C@H](NC(=O)[C@@H]1[C@H]2CC[C@H](C2)N1C(=O)[C@@H](NC(=O)[C@@H](NC(=O)[C@H](C)NS(C)(=O)=O)C1CCCCC1)C(C)(C)C)C(=O)C(=O)NC1CC1

[6.66, 7.26]

---

- system under test: UniProt:P27958
- protocol description: Ki determination, HPLC microbore assay with 5AB peptide substrate, tNS3 and KK4A cofactor
- Format: biochemical
Exercise: state measured Ki for each of the molecules provided.
Numbers only, in nM.

| molecule | system under test | Ki, nM |
| --- | --- | --- |
| C[C@H](NS(C)(=O)=O)C(=O)N[C@H](C(=O)N[C@H](C(=O)N1[C@@H]2CC[C@@H](C2)[C@H]1C(=O)N[C@@H](CC(F)F)C(=O)C(=O)NC1CC1)C(C)(C)C)C1CCCCC1 | UniProt:P27958 | 28 |
| CCCC(NC(=O)[C@@H]1[C@H]2CC[C@H](C2)N1C(=O)[C@@H](NC(=O)[C@@H](NC(=O)[C@H](CNC(=O)OC)NC(=O)OC)C1CCCCC1)C(C)C)C(=O)C(=O)N[C@@H](C)c1ccccc1 (stereo partly drawn) | UniProt:P27958 | 96 |

Read the entry CCC[C@H](NC(=O)[C@@H]1[C@H]2CC[C@H](CC2)N1C(=O)C(NC(=O)[C@@H](NC(=O)c1cnccn1)C1CCCCC1)C(C)(C)C)C(=O)C(=O)NC1CC1 (stereo partly drawn) and write its reported Ki.
125

---

- system under test: UniProt:P27958
- protocol description: Ki determination, HPLC microbore assay with 5AB peptide substrate, tNS3 and KK4A cofactor
- Format: biochemical
Values of Ki strictly less than 0.07 µM map to True, and values of at least 0.07 µM map to False.

Use the examples below as a reference point.
| compound | class label |
| --- | --- |
| CCC[C@H](NC(=O)C1[C@H]2CC[C@H](C2)N1C(=O)[C@@H](NC(=O)[C@@H](NC(=O)c1cnccn1)C1CCCCC1)C(C)(C)C)C(=O)C(=O)NC1CC1 (some centres unmarked) | False |
| CCC[C@H](NC(=O)[C@@H]1[C@H]2CC[C@H](C2)N1C(=O)[C@@H](NC(=O)[C@@H](NC(=O)[C@H](C)NC(=O)C(C)(C)C)C1CCCCC1)C(C)(C)C)C(=O)C(=O)NC1CC1 | True |
| CCCC(NC(=O)[C@@H]1[C@H]2CC[C@H](C2)N1C(=O)[C@@H](NC(=O)[C@@H](NC(=O)[C@H](CNC(=O)OC)NC(=O)OC)C1CCCCC1)C(C)C)C(=O)C(=O)NC1CC1 (some centres unmarked) | False |

Next:
Problem: For the compound CCCC(NC(=O)[C@@H]1[C@H]2CC[C@H](C2)N1C(=O)[C@@H](NC(=O)[C@@H](NC(=O)[C@H](CNC(=O)OC)NC(=O)OC)C1CCCCC1)C(C)(C)C)C(=O)C(=O)N[C@@H](C)c1ccccc1 (some centres unmarked) , is Ki under 0.07 µM?
True

---

Exercise: state measured pIC50 for each of the molecules provided.
- System: Cells containing hepatitis C virus (HCV) replicon
- protocol description: HCV replicon cell assay, Taqman real-time RT-PCR of HCV RNA level
- Format: cell-based
- condition set: 48 h, read-out: IC50 (concentration at which 50% inhibition of HCV RNA level is observed)
Answers are plain numbers, as −log10 of the molar value.

| molecule | pIC50 |
| --- | --- |
| CCCC(NC(=O)[C@@H]1[C@H]2CC[C@H](C2)N1C(=O)[C@@H](NC(=O)[C@@H](NC(=O)[C@H](C)NS(C)(=O)=O)C1CCCCC1)C(C)(C)C)C(=O)C(=O)N[C@@H](C)c1ccccc1 (stereo partly drawn) | 5.91 |

Continue with the molecule presented below.
Read the entry CCC[C@H](NC(=O)[C@@H]1[C@H]2CC[C@H](C2)N1C(=O)[C@@H](NC(=O)[C@@H](NC(=O)[C@H](C)NS(C)(=O)=O)C1CCCCC1)C(C)(C)C)C(=O)C(=O)NC1CC1 and write its reported pIC50.
5.37

---

- system under test: HCV NS3-NS4A protease (Hepatitis C virus genotype 1a)
- protocol description: Ki determination, HPLC microbore assay with 5AB peptide substrate, tNS3 and KK4A cofactor
- Format: biochemical
Values of Ki strictly less than 0.05 µM map to Satisfied, and values of at least 0.05 µM map to Not satisfied.

Use the examples below as a reference point.
| compound | class label |
| --- | --- |
| CCC[C@H](NC(=O)[C@@H]1[C@H]2CC[C@H](C2)N1C(=O)[C@@H](NC(=O)[C@@H](NC(=O)c1[nH]c(C)c(C)c1C(C)=O)C1CCCCC1)C(C)(C)C)C(=O)C(=O)NC1CC1 | Not satisfied |
| CC(C)(C)[C@H](NC(=O)[C@@H](NC(=O)c1cnccn1)C1CCCCC1)C(=O)N1C(C(=O)NC(CC(F)F)C(=O)C(=O)NC2CC2)[C@H]2CC[C@@H]1C2 (some centres unmarked) | Not satisfied |
| CCCC(NC(=O)[C@@H]1[C@H]2CC[C@H](C2)N1C(=O)[C@@H](NC(=O)[C@@H](NC(=O)[C@H](CNC(=O)OC)NC(=O)OC)C1CCCCC1)C(C)(C)C)C(=O)C(=O)NC1CC1 (some centres unmarked) | Satisfied |
| CCC[C@H](NC(=O)[C@@H]1[C@H]2CC[C@H](C2)N1C(=O)[C@@H](NC(=O)[C@@H](NC(=O)c1ncc[nH]1)C1CCCCC1)C(C)(C)C)C(=O)C(=O)NC1CC1 | Satisfied |

Next:
Problem: For the compound CCCC(NC(=O)[C@@H]1[C@H]2CC[C@H](C2)N1C(=O)[C@@H](NC(=O)[C@@H](NC(=O)c1cnccn1)C1CCCCC1)C(C)(C)C)C(=O)C(=O)N[C@@H](C)c1ccccc1 (some centres unmarked) , is Ki under 0.05 µM?
Not satisfied
